Values compiled from the supplement of paper PMC10567573.

B1: PBXIP1 (parent)
chain: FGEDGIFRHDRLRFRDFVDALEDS

# Variants of: B1
# protocol_summary: protein stability index of a GFP-peptide fusion (GPS, HEK-293T) (PSI 1-6); higher = more stable;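 further: lentivirally expressed fusions sorted by FACS into six bins by GFP to DsRed ratio, PSI derived from sequencing read proportions per bin multiplied by bin number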
# assay_conditions: c terminus: a fixed tail appended
measured_metric: protein stability index
One number for each entry.

- mutant_designation: "L21H"
  assay_value: 3
- mutant_designation: "R15Q"
  assay_value: 3.06

Please find the next variant below.
protein stability index measured on `R8G` = 2.93
